For each of the compounds below, state its T/C.
# System: L1210 leukemia ip in BDF1 mice, survival T/C
# PROCEDURE SUMMARY: NCI In Vivo Anticancer Drug Screen. Data for tumor model L1210 Leukemia (intraperitoneal) in B6D2F1 (BDF1) mice
# EXPERIMENTAL CONTEXT: endpoint: mean survival time; dose: 50.0 mg/kg/injection; schedule: Q01DX009 (ip); vehicle: Klucel (hydroxypropylcellulose) (HPC); higher = longer survival
Toxic doses and inconclusive results are not listed. Square brackets hold non-standard residues; d marks the D form. Peptide text beside a SMILES is read from it. * marks the point of attachment. ξ: configuration not given here. ξE = NC(CCC(=O)O)C(=O)O; Cbz = O=C(OCc1ccccc1)*

Enquiry: Give L1210 leukemia ip in BDF1 mice, survival T/C T/C for COC1OC(C)C(OS(C)(=O)=O)C2OC(C)(C)OC12 (stereo not drawn)
Return: 103 % of control

Enquiry: Request: T/C, test system L1210 leukemia ip in BDF1 mice, survival T/C, entry C[N+](C)(C)CCOc1ccc(Cl)cc1
Return: 106 % of control

Enquiry: Lab note: need T/C with L1210 leukemia ip in BDF1 mice, survival T/C for entry O=C1C2C(C(=O)N1c1cccc3ccccc13)C1(Cl)C(Cl)=C(Cl)C2(Cl)C1(Cl)Cl (stereo not drawn) , please look it up.
Return: 96 % of control

Enquiry: Missing value: T/C, L1210 leukemia ip in BDF1 mice, survival T/C, entry C/C=C/C=C/C(=O)NO . Fill in?
Return: 93 % of control

Enquiry: Which measured T/C belongs to CC1C=CC(c2ccccc2)C2C(=O)OC(=O)C12 (stereo not drawn) , tested on L1210 leukemia ip in BDF1 mice, survival T/C?
Return: 111 % of control

Enquiry: Give T/C (L1210 leukemia ip in BDF1 mice, survival T/C) of the following compound: [O-][n+]1onc2ccc(Cl)cc21
Return: 98 % of control

Enquiry: Param readout= T/C; system= L1210 leukemia ip in BDF1 mice, survival T/C; entry= CC(C)=CCCC(=O)NC(=O)NS(=O)(=O)c1ccc(Cl)cc1 ; returns value.
Return: 109 % of control

Enquiry: Item CCCC[N+]12CC=C3COC(=O)C(C)(O)C(C)(O)C(C)C(=O)OC(CC1)C32 (stereo not drawn) with L1210 leukemia ip in BDF1 mice, survival T/C - T/C?
Return: 92 % of control

Enquiry: Please tell me: T/C of CN(C)C(=O)C1(c2ccc(Cl)cc2)CCN(CCCC(=O)c2ccc(F)cc2)CC1 , system L1210 leukemia ip in BDF1 mice, survival T/C?
Return: 100 % of control

Enquiry: I'm curious: which T/C was measured for CC(=O)C1C=NCCN=CC(C(C)=O)C(C)=NCCCN=C1C.[Ni] (stereo not drawn) tested on L1210 leukemia ip in BDF1 mice, survival T/C?
Return: 101 % of control

Enquiry: Record CCOC(=O)c1cnc(SC)nc1Nc1ccc(Br)cc1 : what is its T/C with L1210 leukemia ip in BDF1 mice, survival T/C?
Return: 93 % of control

Enquiry: Field: T/C (L1210 leukemia ip in BDF1 mice, survival T/C). Entry: Nc1nc(=S)c2[nH]c(N=Nc3ccc(S(=O)(=O)Nc4cnc5ccccc5n4)cc3)nc2[nH]1
Return: 109 % of control

Enquiry: Entry C/C(=N\Nc1nc2ccccc2o1)c1ccncc1 , system L1210 leukemia ip in BDF1 mice, survival T/C: what T/C was measured?
Return: 105 % of control

Enquiry: What reported T/C corresponds to O=[N+]([O-])c1cccnc1Cl on L1210 leukemia ip in BDF1 mice, survival T/C?
Return: 107 % of control

Enquiry: // lookup T/C | system=L1210 leukemia ip in BDF1 mice, survival T/C | key= O=C(Nc1ccc(F)cc1)Nc1cccc(C(F)(F)F)c1
Return: 103 % of control

Enquiry: Lab request: please report T/C under test system L1210 leukemia ip in BDF1 mice, survival T/C for CC(=O)Oc1ccc2c3c(ccc2c1)CCCC3
Return: 90 % of control

Enquiry: Can you look up T/C on L1210 leukemia ip in BDF1 mice, survival T/C for Cc1[nH]c(=S)[nH]c(=O)c1CN(CCO)CCO ?
Return: 96 % of control

Enquiry: Hello, I am looking for reported T/C with L1210 leukemia ip in BDF1 mice, survival T/C for C[N+](C)(C)CSc1ccccc1-n1cccc1 . Could you help?
Return: 110 % of control

Enquiry: Give T/C (L1210 leukemia ip in BDF1 mice, survival T/C) of the following compound: O=C(O)CCC(NC(=O)CNC(=O)OCc1ccccc1)C(=O)O (stereo not drawn) (Cbz-Gly-[ξE]-OH)
Return: 95 % of control

Enquiry: API: value(readout= T/C, system= L1210 leukemia ip in BDF1 mice, survival T/C, query= Cc1c(Cl)cccc1N=Cc1ccccc1O )
Return: 96 % of control

Enquiry: Hi! What's the reported T/C for Nc1ccc(-c2ccc(NC(=O)C(=O)O)cc2)cc1 on L1210 leukemia ip in BDF1 mice, survival T/C?
Return: 97 % of control

Enquiry: Find the measured T/C: item NC(C(=O)O)c1ccccc1Cl (stereo not drawn) , target or system L1210 leukemia ip in BDF1 mice, survival T/C.
Return: 95 % of control

Enquiry: Any idea what T/C came out for COc1ccc(OC)c(NC(=O)Nc2cc([N+](=O)[O-])ccc2OC)c1 on L1210 leukemia ip in BDF1 mice, survival T/C?
Return: 101 % of control
